experimentalTarget: T1, Human CD3eg linker (human)
T1 construct: Single-chain construct; also called recombinant human CD3
T1 chain: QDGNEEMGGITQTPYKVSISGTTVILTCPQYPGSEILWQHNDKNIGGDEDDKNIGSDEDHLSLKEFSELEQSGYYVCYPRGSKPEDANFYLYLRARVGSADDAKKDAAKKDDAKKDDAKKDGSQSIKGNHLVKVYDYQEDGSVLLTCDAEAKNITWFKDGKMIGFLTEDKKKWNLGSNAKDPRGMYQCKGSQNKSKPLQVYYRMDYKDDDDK
assayRemarks: SPR; fold vs parent H183/L072
Would you kindly list fold change of affinity for each of these binders?
Numbers only, in fold.

Would you be so kind as to report fold change of affinity for each listed record?
1. H183/L072 VL M27eT (antibody, name in Kabat numbering, V domains shown) VH: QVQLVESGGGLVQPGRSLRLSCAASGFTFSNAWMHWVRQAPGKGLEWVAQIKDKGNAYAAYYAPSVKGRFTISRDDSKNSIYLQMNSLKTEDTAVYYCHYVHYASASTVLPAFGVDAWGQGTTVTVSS VL: DIVMTQSPLSLPVTPGEPASISCQASQELVHTNRNTYLHWYQQKPGQAPRLLIYKVSNRFPGVPDRFSGSGSGTDFTLKISRVEAEDVGVYYCAQGTSVPFTFGQGTKLEIK
2. H183/L072 VL F55N (antibody, name in Kabat numbering, V domains shown) VH: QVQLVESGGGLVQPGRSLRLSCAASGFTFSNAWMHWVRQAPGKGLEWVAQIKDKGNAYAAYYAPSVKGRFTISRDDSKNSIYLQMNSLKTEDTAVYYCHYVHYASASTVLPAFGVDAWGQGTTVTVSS VL: DIVMTQSPLSLPVTPGEPASISCQASQELVHMNRNTYLHWYQQKPGQAPRLLIYKVSNRNPGVPDRFSGSGSGTDFTLKISRVEAEDVGVYYCAQGTSVPFTFGQGTKLEIK
3. H183/L072 VL S93D (antibody, name in Kabat numbering, V domains shown) VH: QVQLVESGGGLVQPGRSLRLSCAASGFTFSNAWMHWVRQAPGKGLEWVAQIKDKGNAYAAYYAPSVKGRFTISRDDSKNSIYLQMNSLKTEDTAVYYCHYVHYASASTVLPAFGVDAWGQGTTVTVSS VL: DIVMTQSPLSLPVTPGEPASISCQASQELVHMNRNTYLHWYQQKPGQAPRLLIYKVSNRFPGVPDRFSGSGSGTDFTLKISRVEAEDVGVYYCAQGTDVPFTFGQGTKLEIK
4. H183/L072 VL G91K (antibody, name in Kabat numbering, V domains shown) VH: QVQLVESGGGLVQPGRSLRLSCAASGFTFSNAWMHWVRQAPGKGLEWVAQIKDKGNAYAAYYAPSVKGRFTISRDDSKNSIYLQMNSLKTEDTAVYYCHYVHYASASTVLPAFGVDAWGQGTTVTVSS VL: DIVMTQSPLSLPVTPGEPASISCQASQELVHMNRNTYLHWYQQKPGQAPRLLIYKVSNRFPGVPDRFSGSGSGTDFTLKISRVEAEDVGVYYCAQKTSVPFTFGQGTKLEIK
5. H183/L072 VL S93M (antibody, name in Kabat numbering, V domains shown) VH: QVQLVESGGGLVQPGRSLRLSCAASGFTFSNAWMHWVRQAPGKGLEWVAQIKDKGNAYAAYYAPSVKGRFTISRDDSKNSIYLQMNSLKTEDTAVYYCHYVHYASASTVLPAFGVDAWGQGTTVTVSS VL: DIVMTQSPLSLPVTPGEPASISCQASQELVHMNRNTYLHWYQQKPGQAPRLLIYKVSNRFPGVPDRFSGSGSGTDFTLKISRVEAEDVGVYYCAQGTMVPFTFGQGTKLEIK

Ans:
[1.2, 3.9, 0.7, 0, 1]

Sourced from patent US20210388087A1
